Hi there, I'd appreciate the recorded TGI for every entry that follows.
System: HOP-92 NSCLC
Assay: NCI tumour cell line growth inhibition, 48 h
Your answer should be a plain number; it is taken to be in µM.

Provide TGI, recorded with HOP-92 NSCLC, of Cc1ccc2[nH]c3c(C)c4c(c(C)c3c2c1)CN(C)C=C4 4.74

Provide TGI, recorded with HOP-92 NSCLC, of CCCCC(C(=O)N/N=C/c1ccc([N+](=O)[O-])o1)C(=O)N/N=C/c1ccc([N+](=O)[O-])o1 4.08

Provide TGI, recorded with HOP-92 NSCLC, of CC1C(=NO)C(C)C(c2ccccc2)N(N=O)C1c1ccccc1 (stereo unspecified) 49.3

Provide TGI, recorded with HOP-92 NSCLC, of CCN(CC)c1ccc(C2CC(c3cc(OC)c(OC)c(OC)c3)=NN2)cc1 (stereo unspecified) 31.1

----------
Tested on: NCI-H226 lung
Assay: NCI tumour cell line growth inhibition, 48 h
Quantity measured: TGI

Provide one value: measured TGI of Cc1cc(C(=O)Nc2nc3cccc(Cl)c3n2[C@@H]2CCCCN(C(=O)/C=C/CN(C)C)C2)ccn1 32.1 µM

Provide one value: measured TGI of Cn1c2c(c3ccccc31)CCN1OCC=C[C@@H](C(=O)O)[C@@H]21 > 100 µM

Provide one value: measured TGI of COc1cccc(NC(=O)C(C)(C)C)c1C=O > 100 µM

Provide one value: measured TGI of O=c1c(-c2ccccc2)c2oc(c1-c1ccccc1)CS(=O)(=O)CCC2 80.9 µM

Provide one value: measured TGI of CCNCCC1(CC)C(=O)NC(=O)NC1=O > 100 µM

Provide one value: measured TGI of CN(C)c1ncnc2c1Cc1ccccc1C(=O)N2C > 100 µM

Provide one value: measured TGI of COc1cc(-c2nc(NC(C)=O)sc2-c2ccnc(NCCNS(=O)(=O)c3ccccc3)n2)ccc1Cl > 100 µM

Provide one value: measured TGI of O=Cc1ccc(-c2ccc(-c3nc4ccccc4[nH]3)cc2)s1 82.3 µM

Provide one value: measured TGI of O=c1[nH]cc(/C=N\Nc2ccccc2)c(=O)[nH]1 > 100 µM

Provide one value: measured TGI of O=C(NCCO)c1cc2c(cn1)[nH]c1ccccc12 > 100 µM

Provide one value: measured TGI of O=C1/C(=C\c2ccc(F)cc2)CN(C(=O)c2ccc([N+](=O)[O-])cc2)C/C1=C\c1ccc(F)cc1 > 21.4 µM

----------
Hi there, I'd appreciate the recorded TGI for every entry that follows.
Tested on: SF-295 CNS
Test: NCI tumour cell line growth inhibition, 48 h

Provide one value: measured TGI of CCC(=O)C1(N2CCOCC2)CCN(CCCC(=O)c2ccc(F)cc2)CC1 > 100 µM

Provide one value: measured TGI of CC(C)/C(Cl)=N/OC(=O)Nc1cccc(C(F)(F)F)c1 33 µM

Provide one value: measured TGI of c1ccc(CSC2(SCc3ccccc3)CCCC2)cc1 > 10 µM

Provide one value: measured TGI of CC(=O)OCc1ccc2oc(=O)c(C(=O)Oc3cccc(Cl)c3)cc2c1 > 100 µM

Provide one value: measured TGI of C[C@H]1C(=O)O[C@@H]1[C@H]1COC(C)(C)O1 > 100 µM

Provide one value: measured TGI of O=C(CSc1nnc(Cc2ccccc2)o1)Nc1cccc(Cl)c1 > 100 µM

Provide one value: measured TGI of COC(=O)[C@H]1C(=O)[C@@]2(C)[C@H]([C@H](OC(=O)c3ccccc3)[C@]3(O)C[C@H](OC(=O)[C@H](O)[C@@H](NC(=O)c4ccc(F)cc4)c4ccccc4)C(C)=C1C3(C)C)[C@]1(OC(C)=O)CO[C@@H]1C[C@@H]2O 0.0639 µM

Provide one value: measured TGI of CC1C(=NO)C(C)C(c2ccccc2)N(N=O)C1c1ccccc1 (stereo not given) 29.5 µM

Provide one value: measured TGI of CCOC(=O)CC(=O)C(=O)NNC1=NCCN1 > 100 µM

Provide one value: measured TGI of COc1cccc(C(=O)Nc2c3ccccc3nc3ccccc23)c1OC > 100 µM

Provide one value: measured TGI of COc1ccc(/C=C/C(=O)C(C)(C)CN2CCCCC2)cc1 97.5 µM

Provide one value: measured TGI of Cc1ccc2[nH]c3c(C)c4c(c(C)c3c2c1)CN(C)C=C4 3.73 µM

Provide one value: measured TGI of C#Cc1c(C)c(/C=C/C(C)=C/C=C/C(C)=C/C(=O)OC)n(C)c1C > 100 µM

Provide one value: measured TGI of COc1ccc(CCN2CCCN3C2=Nc2ccccc2S3(=O)=O)cc1 > 100 µM

Provide one value: measured TGI of COc1ccccc1/C=C/C(=O)c1c(O)cc2occc2c1OC 55.6 µM

Provide one value: measured TGI of CN(C)CCCNC(=O)c1cc(NC(=O)c2cc(NS(=O)(=O)c3ccc4c(c3)C(=O)c3ccccc3C4=O)cn2C)cn1C > 100 µM

Provide one value: measured TGI of COc1ccc2c(c1O)C(=O)C(CCC(=O)O)CC2 (stereo not given) > 100 µM

Provide one value: measured TGI of CNC1C(O)C(NC)C2OC3(O)C(=O)CC(C)OC3OC2C1O (stereo not given) > 100 µM

Provide one value: measured TGI of CC1=C(C(=O)Nc2ccccc2)C(c2ccc([N+](=O)[O-])cc2)C(C(=O)Nc2ccccc2)=C(C)N1 > 100 µM

Provide one value: measured TGI of O=c1c(-c2c(-c3ccccc3)oc3ccc(Cl)cc3c2=O)c(-c2ccccc2)oc2ccc(Cl)cc12 > 79.4 µM
